Tested on: 786-0 renal
Experiment: NCI tumour cell line growth inhibition, 48 h
Where a SMILES comes first, the peptide text is derived from it. [ ]: non-standard residue; d: D form. The star is where a group is joined. Phe(4-NO2) = N[CH](Cc1ccc([N+](=O)[O-])cc1)C(=O)O; Boc = CC(C)(C)OC(=O)*; OBn = c1ccc(CO*)cc1
OBSERVED_PROPERTY: TGI

Example cases with answers are listed next.
Request the reported TGI associated with COc1ccc2nc(N/N=C(\C)c3ccccn3)cc(C)c2c1
1.21 µM

Request the reported TGI associated with COC(=O)CCC(NC(=O)OC(C)(C)C)C(=O)NC(Cc1ccc([N+](=O)[O-])cc1)C(=O)NCC(=O)OCc1ccccc1 (stereo not given) (Boc-Glu(OMe)-[Phe(4-NO2)]-Gly-OBn; configuration not given here)
> 100 µM

Request the reported TGI associated with CC(=O)NNc1nc(C)c(C(/C=C/c2ccc3c(c2)OCO3)=N/Nc2ccccc2)s1
> 100 µM

Request the reported TGI associated with O=C1CC(O)C=C1Nc1ccc(Cl)cc1 (stereo not given)
> 100 µM

Request the reported TGI associated with O=C(O)c1c(-c2cccc3ccccc23)sc(-c2cccc3ccccc23)c1C(=O)O
> 100 µM

Value sought for every listed compound: TGI.
1. CCOc1cc2ncc(C#N)c(Nc3ccc(OCc4cccc(F)c4)c(Cl)c3)c2cc1NC(=O)CC1CCSS1 (stereo not given)
2. CN(C)c1ccc(/C=N/Nc2nc3ccccc3c(=O)n2-c2ccccc2)cc1
3. COc1ccc(N=C2CSc3nnc(-c4cc(F)c(Cl)cc4Cl)n3N2)cc1
4. C=CC[C@H]1[C@@H](O[Si](C)(C)C(C)(C)C)[C@H](n2ccc(=O)[nH]c2=O)O[C@@H]1CO[Si](C)(C)C(C)(C)C
5. COc1cc2c3c(n(C)c(=O)c2cc1OC)-c1cc2c(cc1/C3=C\CCCCCN)OCO2
6. N=C(N)SCCON1C(=O)c2ccccc2C1=O
7. CCCCOC(=O)CNC(=O)OCCCCC#CC#CCCCCOC(=O)NCC(=O)OCCCC
8. CC(=O)n1c(COS(C)(=O)=O)nc2ccccc21

> 25 µM
83.3 µM
4 µM
3.01 µM
> 50.9 µM
> 100 µM
> 100 µM
> 100 µM

###

System: PC-3 prostate
Assay: NCI tumour cell line growth inhibition, 48 h
Record form. Attribute: TGI. Fill in for each entry.

Value sought for every listed compound: TGI.
1. CC(C)(CN)CN
2. COc1cc(-c2nc3cc(F)ccc3s2)ccc1O
3. O=c1[nH]nc(Cc2ccccc2)n1/N=C/c1c[nH]c2ccccc12
4. Cc1c(C)c(C)c(-n2[nH]c(=O)n(C)c2=O)c(C)c1C
5. COc1ccc(CCn2cnc3ccccc32)cc1
6. Cn1ccnc1S/C(=C\C=C(C#N)C#N)c1ccc(Cl)cc1
7. Oc1ccc(Cl)cc1C1=N/C(=N\CN2CCN(C/N=C3/N=C(c4cc(Cl)ccc4O)CC(c4ccccc4)N3)CC2)NC(c2ccccc2)C1 (stereo unspecified)

1: > 100 µM; 2: > 100 µM; 3: > 100 µM; 4: > 100 µM; 5: > 100 µM; 6: 9.22 µM; 7: > 100 µM

###

System: DMS 114 small cell lung
Experiment: NCI tumour cell line growth inhibition, 48 h
OBSERVED_PROPERTY: TGI

Example cases with answers are listed next.
Give recorded TGI with DMS 114 small cell lung for the following compound: CCOC(=O)C(=O)Nc1nc2c(s1)C(=O)c1ccccc1C2=O
17.6 µM

Give recorded TGI with DMS 114 small cell lung for the following compound: CC(=O)C1CC(C)=CCC12C(=O)Nc1ccccc12 (configuration not stated)
> 100 µM

Give recorded TGI with DMS 114 small cell lung for the following compound: COC(=O)C1CC2(CC3=C1CCCC3)OCCO2 (configuration not stated)
> 100 µM

Give recorded TGI with DMS 114 small cell lung for the following compound: CCCCOC(=O)CNC(=O)OCCCCC#CC#CCCCCOC(=O)NCC(=O)OCCCC
> 100 µM

Give recorded TGI with DMS 114 small cell lung for the following compound: CC1=C(C(=O)Nc2c(C)cccc2C)C(c2ccc3c(c2)OCO3)C(C(=O)Nc2c(C)cccc2C)=C(C)N1
38.1 µM

Value sought for every listed compound: TGI.
1. Cc1cnc2c(C)ccc([N+](=O)[O-])c2c1NCCCN(C)C
2. Cn1c2c(c3ccccc31)CCN(CCCCN1CCc3c(n(C)c4ccccc34)C1=O)C2
3. O=C(O)CSc1n[nH]c(-c2ccc(O)cc2)n1
4. Nn1c(-c2ccccc2)nc2ccc(Br)cc2c1=O
5. Cc1cc(C)nc(NS(=O)(=O)c2ccc(Nc3c4ccccc4nc4c(C(=O)Nc5ccc(S(=O)(=O)N=C(N)N)cc5)ccc(Cl)c34)cc2)n1
6. Cc1cc2c(c(C#N)c1C)NC(=O)CCC2=O
7. COc1cc([C@H]2c3cc4c(cc3O[C@@]3(O)COC(=O)[C@@H]23)OCO4)cc(OC)c1OC

1: > 100 µM; 2: > 100 µM; 3: > 100 µM; 4: > 100 µM; 5: 41.8 µM; 6: > 100 µM; 7: > 100 µM

###

Tested on: A498 renal
Assay: NCI tumour cell line growth inhibition, 48 h
OBSERVED_PROPERTY: TGI

Request the reported TGI associated with Cc1c(C)c(C)c(-n2[nH]c(=O)n(C)c2=O)c(C)c1C
> 100 µM

Value sought for every listed molecule: TGI.
1. COc1cc(-c2nn(-c3ccc(NC(=O)c4ccc(Cl)c(Cl)c4)cc3)cc2-c2ccncc2)ccc1Cl
2. N#Cc1c(-c2nc3ccccc3s2)c(=O)oc2cc(O)ccc12
3. CC(=O)Oc1ccc(/C=C/C(=O)O[C@@H](C)[C@H](C)OC(=O)/C=C/c2ccc(OC(C)=O)c(OC(C)=O)c2)cc1OC(C)=O
4. Cc1cn(C2CC(n3cc(Cn4cc(F)c(=O)[nH]c4=O)nn3)C(CO)O2)c(=O)[nH]c1=O (stereo not given)
5. CSc1c(C(=O)Nc2ccccc2)c(N)nn1-c1ccccc1
6. CCOc1ccccc1NC(=O)C(=O)CC(=O)c1c(C)n([O-])c2ccccc2[n+]1=O
7. COc1ccc2[nH]c3c(c2c1)CCN(C)CC3
8. CCCCCc1cc(OC(=O)c2c(O)cc(OC)cc2CCCCC)cc(O)c1C(=O)O

> 100 µM
> 100 µM
93.9 µM
> 100 µM
> 100 µM
> 100 µM
> 100 µM
35.6 µM

Value sought for every listed molecule: TGI.
1. O=C(CCCCCCSc1nc(-c2ccccc2)cc(-c2ccc(Cl)cc2)n1)NO
2. COc1cc(C2CC(c3ccc(C)cc3)=NN2C=O)ccc1Oc1ccnc2cc(Cl)ccc12 (stereo not given)
3. COc1ccc2c3c1OC1CC(O)C=CC31CCN(C)C2 (stereo not given)
4. Cc1ccc(CNc2c3ccccc3nc3ccccc23)cc1
5. CC(C)Oc1c(-c2c(OC(C)C)c(=O)c2=O)c(=O)c1=O

["4.09 µM", "23.1 µM", "> 150 µM", "2.92 µM", "> 100 µM"]

Value sought for every listed molecule: TGI.
1. S=C1c2ccccc2NC(=NC2CCCC2)C2CSCN12 (stereo not given)
2. C=CC(=O)N1C/C(=C\c2ccc(N(C)C)cc2)C(=O)/C(=C/c2ccc(N(C)C)cc2)C1
3. CCC1C(=O)C[C@H]2[C@@H]3C(O)CC4=CC(=O)CC[C@]4(C)[C@H]3CC[C@]12C (stereo not given in full)

1. > 100 µM
2. > 100 µM
3. > 50 µM

Value sought for every listed molecule: TGI.
1. CN(C)c1ccc(/C=N/Nc2nc3ccccc3c(=O)n2-c2ccccc2)cc1
2. CCOC(=O)[C@@]1(C)C=C2O[C@@H]3OC4(CCCCC4)O[C@@H]3C2=C2C(O)=CC=C(O)[C@]21C(=O)OC
3. CN(C)c1ccc(N2C(=S)SC(=Nc3ccccc3)C2=Nc2ccccc2)cc1

> 100 µM
> 68 µM
> 100 µM

###

Tested on: CAKI-1 renal
Assay: NCI tumour cell line growth inhibition, 48 h
Where a SMILES comes first, the peptide text is derived from it. [ ]: non-standard residue; d: D form. The star is where a group is joined. Phe(4-NO2) = N[CH](Cc1ccc([N+](=O)[O-])cc1)C(=O)O; Boc = CC(C)(C)OC(=O)*; OBn = c1ccc(CO*)cc1
Record form. Attribute: TGI. Fill in for each entry.

Request the reported TGI associated with COc1ccc2[nH]c(C(=O)N3CC(CCl)c4ccc(N)cc43)cc2c1 (stereo unspecified)
0.299 µM

Value sought for every listed molecule: TGI.
1. CC(C)Oc1c(-c2c(OC(C)C)c(=O)c2=O)c(=O)c1=O
2. COC(=O)CCC(NC(=O)OC(C)(C)C)C(=O)NC(Cc1ccc([N+](=O)[O-])cc1)C(=O)NCC(=O)OCc1ccccc1 (stereo unspecified) (Boc-Glu(OMe)-[Phe(4-NO2)]-Gly-OBn; configuration not given here)
3. COc1ccc2c(c1)[nH]c(=O)c1c3cc(C)c(C)cc3cn21

1: > 100 µM; 2: > 100 µM; 3: 0.0102 µM

Value sought for every listed molecule: TGI.
1. O=C(c1ccccc1)C(c1ccccc1)C1(O)C(=O)Nc2c(Cl)cc(Cl)cc21 (stereo unspecified)
2. CCC(CCCN)Nc1cc(OC)cc2cccnc12 (stereo unspecified)

40.1 µM
> 100 µM

Value sought for every listed molecule: TGI.
1. CN(C)c1ccc(/C=N/Nc2nc3ccccc3c(=O)n2-c2ccccc2)cc1
2. O=C(Nc1sccc1S(=O)(=O)c1ccccc1)c1cccnc1
3. Cc1ccc(C(=O)OC[C@H]2CC[C@@H](n3cc(N(C)C4CCCCC4)c(=O)[nH]c3=O)O2)cc1

1: > 100 µM; 2: > 100 µM; 3: > 100 µM

Value sought for every listed molecule: TGI.
1. COc1ccc2[nH]c3c(c2c1)CCN(C)CC3
2. NCCC(N)C(=O)O (stereo unspecified)
3. CCOc1ccccc1NC(=O)C(=O)CC(=O)c1c(C)n([O-])c2ccccc2[n+]1=O
4. COc1cc2c(cc1OC)C(=O)/C(=C/c1cccc(OCC(=O)c3ccccc3)c1)C2
5. Cc1ccc(F)cc1NC(=O)O/N=C(\Cl)C(C)C

1. > 100 µM
2. > 100 µM
3. > 100 µM
4. 79.3 µM
5. 3.09 µM

Value sought for every listed molecule: TGI.
1. COc1cc(O)c([C@@H]2C[C@H](CCc3ccc(O)cc3)O[C@H](c3ccc(O)cc3)C2)c(O)c1C(=O)/C=C/c1ccc(O)cc1
2. O=C(c1ccc(Cl)cc1)c1ccc(OCC(=O)N2CCN(c3ccccc3)CC2)cc1

["18.3 µM", "> 100 µM"]
